- Tested Target: USP1/UAF1 (Homo sapiens)
- Test: Deubiquitination assay for USP1/UAF1 (ubiquitin-rhodamine 110 substrate)
- Protocol Conditions: 0.5 nM USP1/UAF1, 150 nM ubiquitin-rhodamine, 50% inhibition compared to DMSO control
pIC50: −log10 of the molar value.
Measured Quantity: pIC50

Reference set (6 entries):
In [3]: df
Out[3]:
                                        mol        result
0  CC(C)n1cc(C(F)(F)F)nc1-c1ccc2c(c1)OCCCOc1ncnc(C3CC3)c1-c1ncc3cnn(c3n1)C2        ≥ 7.00
1  FC(F)(F)c1cn(C2CC2)c(-c2ccc3c(c2)OCCOc2ncnc(C4CC4)c2-c2ncc4ccc(n4n2)C3)n1        ≥ 7.00
2  CC(C)n1cc(C(F)(F)F)nc1-c1ccc2cc1CCCCOc1ncnc(C3CC3)c1-c1ncc3cnn(c3n1)C2        ≥ 7.00
3  Fc1cc2n3nc(ncc13)-c1c(ncnc1C1CC1)OCCOc1cc(-c3nc(C(F)(F)F)cn3C3CC3)ccc1C2        ≥ 7.00
4  CC(C)n1cc(C(F)(F)F)nc1-c1ccc2c(c1)OCC1(CC1)COc1ncnc(C3CC3)c1-c1ncc3cnn(c3n1)C2  6.00 to 7.00
5  Cc1cc(C(F)(F)F)nn1-c1ccc2cc1OCCCOc1ncnc(C3CC3)c1-c1ncc3cnn(c3n1)C2        ≥ 7.00

Q. Bench note: what pIC50 did `CC(C)c1cccc2c1-c1ncc3cnn(c3n1)Cc1ccc(-c3nc(C(F)(F)F)cn3C(C)C)cc1OCCO2` show?
A. ≥ 7.00

Q. Bench note: what pIC50 did `CC(C)n1cc(C(F)(F)F)nc1-c1ccc2cc1NCCOc1ncnc(C3CC3)c1-c1ncc3cnn(c3n1)C2` show?
A. ≥ 7.00

Q. Bench note: what pIC50 did `CC(C)n1cc(C(F)(F)F)nc1-c1ccc2cc1OCCCOc1ncnc(C3CC3)c1-c1ncc3cnn(c3n1)C2` show?
A. ≥ 7.00

----------
Quick reference for IC50 among some compounds
- Tested Target: USP1/UAF1 (Homo sapiens, UniProt O94782)
- Sequence (O94782 whole entry): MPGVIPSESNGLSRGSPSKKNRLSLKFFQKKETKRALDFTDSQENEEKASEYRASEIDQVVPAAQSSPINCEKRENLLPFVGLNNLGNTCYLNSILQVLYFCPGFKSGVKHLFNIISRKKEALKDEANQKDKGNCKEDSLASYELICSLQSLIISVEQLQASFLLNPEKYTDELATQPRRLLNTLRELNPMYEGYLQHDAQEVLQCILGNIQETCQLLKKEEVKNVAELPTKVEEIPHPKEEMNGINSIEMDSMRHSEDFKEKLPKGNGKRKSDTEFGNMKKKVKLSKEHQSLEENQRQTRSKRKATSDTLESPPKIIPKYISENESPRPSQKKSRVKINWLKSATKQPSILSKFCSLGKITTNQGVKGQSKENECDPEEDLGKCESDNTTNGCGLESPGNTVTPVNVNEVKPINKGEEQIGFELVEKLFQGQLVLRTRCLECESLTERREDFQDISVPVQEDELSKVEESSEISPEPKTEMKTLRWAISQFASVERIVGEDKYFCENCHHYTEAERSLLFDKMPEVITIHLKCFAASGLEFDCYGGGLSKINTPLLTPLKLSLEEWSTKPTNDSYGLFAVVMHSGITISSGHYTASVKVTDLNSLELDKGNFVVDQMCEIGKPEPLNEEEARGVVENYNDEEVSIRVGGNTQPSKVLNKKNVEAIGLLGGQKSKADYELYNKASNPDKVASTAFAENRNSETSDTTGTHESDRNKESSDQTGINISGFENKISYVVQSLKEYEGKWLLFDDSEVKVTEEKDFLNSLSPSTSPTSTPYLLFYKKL
- Sequence (Q8TAF3 whole entry partner): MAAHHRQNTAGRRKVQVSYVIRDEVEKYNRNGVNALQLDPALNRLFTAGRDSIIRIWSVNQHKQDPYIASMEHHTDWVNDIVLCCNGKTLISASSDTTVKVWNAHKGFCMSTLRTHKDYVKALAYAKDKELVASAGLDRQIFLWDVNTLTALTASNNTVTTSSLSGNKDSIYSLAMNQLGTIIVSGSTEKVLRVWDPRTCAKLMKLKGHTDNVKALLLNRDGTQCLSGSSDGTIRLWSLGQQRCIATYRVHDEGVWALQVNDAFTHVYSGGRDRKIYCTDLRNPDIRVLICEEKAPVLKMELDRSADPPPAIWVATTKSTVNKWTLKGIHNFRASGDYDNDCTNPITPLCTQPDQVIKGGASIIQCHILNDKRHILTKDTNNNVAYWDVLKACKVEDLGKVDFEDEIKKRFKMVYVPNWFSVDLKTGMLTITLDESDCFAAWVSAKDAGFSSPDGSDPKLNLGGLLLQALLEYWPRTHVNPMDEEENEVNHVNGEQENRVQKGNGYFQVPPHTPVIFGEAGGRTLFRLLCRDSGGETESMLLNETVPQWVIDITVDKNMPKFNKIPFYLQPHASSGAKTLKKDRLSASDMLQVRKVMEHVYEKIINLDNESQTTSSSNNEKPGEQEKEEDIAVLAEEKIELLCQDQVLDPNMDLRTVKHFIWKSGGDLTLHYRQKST
- Test: Deubiquitination assay for USP1/UAF1 (ubiquitin-rhodamine 110 substrate)
- Protocol Conditions: 0.5 nM USP1/UAF1, 150 nM ubiquitin-rhodamine, 50% inhibition compared to DMSO control

Reference set (3 entries):
>>> print(df.to_string())
                                   compound  measured_quantity     result
0  CC(C)n1cc(C(F)(F)F)nc1-c1ccc2cc1/C=C\CCOc1ncnc(C3CC3)c1-c1ncc3cnn(c3n1)C2 [Example 46]               IC50   ≤ 100 nM
1  FC(F)(F)c1cn(C2CC2)c(-c2ccc3c(c2)NCCOc2ncnc(C4CC4)c2-c2ncc4ccc(n4n2)C3)n1 [Example 42]               IC50   ≤ 100 nM
2  CC(C)n1cc(C(F)(F)F)nc1-c1ccc2c(c1)N(C)CCCOc1ncnc(C3CC3)c1-c1ncc3cnn(c3n1)C2 [Example 23]               IC50  ≥ 1000 nM

Q. Bench note: what IC50 did CC(C)n1cc(C(F)(F)F)nc1-c1ccc2c(c1)SCCOc1ncnc(C3CC3)c1-c1ncc3cnn(c3n1)C2 [Example 27] show?
A. ≤ 100 nM

Q. Bench note: what IC50 did CC(C)n1cc(C(F)(F)F)nc1-c1ccc2c(c1)OCCOc1ncnc(C3CC3)c1-c1ncc3ccc(n3n1)C2 [Example 31] show?
A. ≤ 100 nM

----------
- Tested Target: USP1/UAF1 (Homo sapiens, UniProt O94782)
- Test: Deubiquitination assay for USP1/UAF1 (ubiquitin-rhodamine 110 substrate)
- Protocol Conditions: 0.5 nM USP1/UAF1, 150 nM ubiquitin-rhodamine, 50% inhibition compared to DMSO control
Measured Quantity: IC50

Reference set (5 entries):
                                   compound  measured_quantity     result
0  CC(C)n1cc(C(F)(F)F)nc1-c1ccc2c(c1)OCCCCOc1ncnc(C3CC3)c1-c1ncc3cnn(c3n1)C2 [Example 3]               IC50  ≥ 1000 nM
1  O=c1ccc2cnc3nc2n1Cc1ccc(-c2nc(C(F)(F)F)cn2C2CC2)cc1CCOc1c-3ncnc1C1CC1 [Example 18]               IC50  ≥ 1000 nM
2  CC(C)n1cc(C(F)(F)F)nc1-c1ccc2c(c1)NCCCOc1ncnc(C3CC3)c1-c1ncc3ccc(=O)n(c3n1)C2 [Example 20]               IC50   ≤ 100 nM
3  CC(C)n1cc(C(F)(F)F)nc1-c1ccc2c(c1)OCCCNc1c(ncnc1C1CC1)-c1ncc3cnn(c3n1)C2 [Example 10]               IC50   ≤ 100 nM
4  Cc1cnc2nc1NCc1ccc(-c3nc(C(F)(F)F)cn3C(C)C)cc1OCCOc1ncnc(C3CC3)c1-2 [Example 1]               IC50   ≤ 100 nM

Q. Bench note: what IC50 did CC(C)n1cc(C(F)(F)F)nc1-c1ccc2cc1/C=C/CCOc1ncnc(C3CC3)c1-c1ncc3cnn(c3n1)C2 [Example 44] show?
A. ≤ 100 nM

----------
- Tested Target: USP1/UAF1 (Homo sapiens, UniProt O94782)
- Test: Deubiquitination assay for USP1/UAF1 (ubiquitin-rhodamine 110 substrate)
- Protocol Conditions: 0.5 nM USP1/UAF1, 150 nM ubiquitin-rhodamine, 50% inhibition compared to DMSO control
Measured Quantity: IC50

Reference set (6 entries):
                                        mol          result
0  FC(F)(F)c1cn(C2CC2)c(-c2ccc3cc2OCCCOc2ncnc(C4CC4)c2-c2ncc4ccc(n4n2)C3)n1        ≤ 100 nM
1  CC(C)n1cc(C(F)(F)F)nc1-c1ccc2c(c1)OCCCNc1ncnc(C3CC3)c1-c1ncc3ccc(=O)n(c3n1)C2  100 to 1000 nM
2  CC(C)n1cc(C(F)(F)F)nc1-c1ccc2cc1C#CCCOc1ncnc(C3CC3)c1-c1ncc3cnn(c3n1)C2  100 to 1000 nM
3  CC(C)n1cc(C(F)(F)F)nc1-c1ccc2c(c1)NCCCOc1ncnc(C3CC3)c1-c1ncc3ccn(c3n1)C2        ≤ 100 nM
4  CC(C)n1cc(C(F)(F)F)nc1-c1ccc2c(c1)NCCCOc1cccc(C3CC3)c1-c1ncc3cnn(c3n1)C2        ≤ 100 nM
5  CC(C)n1cc(C(F)(F)F)nc1-c1ccc2c(c1)CCCOc1ncnc(C3CC3)c1-c1ncc3cnn(c3n1)C2        ≤ 100 nM

Q. Field: IC50 (USP1/UAF1 (Homo sapiens, UniProt O94782)). Entry: `CC(C)n1cc(C(F)(F)F)nc1-c1ccc2cc1OCCCCOc1ncnc(C3CC3)c1-c1ncc3cnn(c3n1)C2`
A. 100 to 1000 nM

Q. Field: IC50 (USP1/UAF1 (Homo sapiens, UniProt O94782)). Entry: `CC(C)n1cc(C(F)(F)F)nc1-c1ccc2c(c1)NCCCOc1ncnc(C3CC3)c1-c1ncc3cnn(c3n1)C2`
A. ≤ 100 nM

Q. Field: IC50 (USP1/UAF1 (Homo sapiens, UniProt O94782)). Entry: `FC(F)(F)c1cc(C2CC2)n(-c2ccc3c(c2)NCCCOc2c(ncnc2C2CC2)-c2ncc4cnn(c4n2)C3)n1`
A. ≤ 100 nM
